Where these numbers come from: PubChem BioAssay AID504753

Test system: glucose-6-phosphate dehydrogenase-6-phosphogluconolactonase (PfGluPho), Plasmodium falciparum 3D7
Assay Summary: malaria parasite PfGluPho enzyme inhibition – biochemical, fluorescence intensity, single concentration, confirmation (AID 504753);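 further: 0% = DMSO with substrate and 100% = DMSO lacking glucose-6-phosphate substrate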
Experimental Context: recombinant PfGluPho, NADPH-diaphorase-resazurin fluorescence; at 20 µM
In all, about 2,400 compounds went through this assay and about 820 (34%) were called active.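 How the source made its calls: active means inhibition of at least 50% at 20 µM in any single replicate; inactive means the rest.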 These entries were drawn from the full list.
Outcomes: label 1 for active, label 0 for inactive

{"Compound": "CCc1c(C)sc(NC(=O)c2cccs2)c1C(N)=O", "Qualitative Label": "label 0"}
{"Compound": "COc1c(O)ccc2c1CN1CCc3cc4c(cc3C1C2)OCO4 (configuration not stated)", "Qualitative Label": "label 1"}
{"Compound": "Nc1ccc(-c2nnc(-c3ccc(-c4ccccc4)cc3)o2)cc1", "Qualitative Label": "label 0"}
{"Compound": "COc1ccc(CCn2c(NN=C3CCCC3)nc3c2c(=O)[nH]c(=O)n3C)cc1", "Qualitative Label": "label 1"}
{"Compound": "Cc1ccnc(-n2sc3ccccc3c2=O)n1", "Qualitative Label": "label 1"}
{"Compound": "COc1ccc(-n2c(C)cc(C(=O)CSc3nnc(-c4cccs4)o3)c2C)cc1", "Qualitative Label": "label 0"}
{"Compound": "CCSc1nnc(NC(=O)c2ccc(C)cc2)s1", "Qualitative Label": "label 1"}
{"Compound": "C#CCOCCOCCOCCNc1nc(N2CCN(C(=O)CCCCCCCCCCNC(=O)Cn3cc(CCCCCN)nn3)CC2)nc(N2CCN(C(=O)CCCCCCCCCCNC(=O)[C@H](CO)n3cc(CCCSC)nn3)CC2)n1", "Qualitative Label": "label 0"}
{"Compound": "O=C(NC1=CC(=O)c2ccccc2C1=O)c1ccccc1", "Qualitative Label": "label 1"}
{"Compound": "Cn1c(CCC(=O)OCC(=O)NCc2ccccc2Cl)nc(=O)c2ccccc21", "Qualitative Label": "label 0"}
{"Compound": "COCCNC(=S)Nc1cc(S(=O)(=O)N2CCOCC2)ccc1N1CCCCC1", "Qualitative Label": "label 0"}
{"Compound": "CCc1cc(C(N)=O)c(NC(=O)c2ccc(OC)cc2)s1", "Qualitative Label": "label 0"}
{"Compound": "Cc1ccc(NC(=O)Cn2sc3ccccc3c2=O)cc1", "Qualitative Label": "label 1"}
{"Compound": "S=C(NN=Cc1ccccn1)Nc1ccccn1", "Qualitative Label": "label 0"}
{"Compound": "CC(C)(C)NC(=O)COc1ccc(CNc2ccc3[nH]c(=O)[nH]c3c2)cc1", "Qualitative Label": "label 1"}
{"Compound": "Cc1ccc(-c2nc3ccc(Cl)cn3c2Cc2ccccc2)cc1", "Qualitative Label": "label 0"}
{"Compound": "O=c1oc2ccccc2cc1-c1cn(-c2ccccc2)c(=S)[nH]1", "Qualitative Label": "label 0"}
{"Compound": "O=c1[nH]c2ccccc2n2c(-c3ccccc3)nnc12", "Qualitative Label": "label 1"}
{"Compound": "Cc1ccc(OCC(=O)Nc2ccccc2Sc2ccc(Cl)cc2)c([N+](=O)[O-])n1", "Qualitative Label": "label 0"}
{"Compound": "COCCN1C=C2C(=O)C(C)(OC(=O)C3CCCC3)C(=O)C=C2C=C1c1ccsc1 (configuration not stated)", "Qualitative Label": "label 0"}
{"Compound": "Cc1ccc(-c2cn3cc(C)ccc3n2)cc1", "Qualitative Label": "label 0"}
{"Compound": "CC1=CC(C)(C)Nc2ccc(OC(=O)CN3C(=O)C4CCCCC4C3=O)cc21 (configuration not stated)", "Qualitative Label": "label 0"}
